System: NKL (IL-2 2.5 ng/mL);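 note: normalised to DMSO-only wells as negative and benzethonium chloride as positive control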
Assay: percent inhibition of viability; higher = more inhibition
Conditions: 72 h; 100 nM
Provide the reported percent inhibition of viability of each item.
Numbers only, in %.

CNC(=O)c1ccc(N2C(=S)N(c3cnc(C#N)c(C(F)(F)F)c3)C(=O)C23CCC3)cc1F [ARN 509] (max concentration tested 10000 nM) = -0.18
CCCCc1nc2cc(/C=C/C(=O)NO)ccc2n1CCN(CC)CC [Pracinostat] (max concentration tested 10000 nM) = 57
Nc1cc(C(F)(F)F)c(-c2cc(N3CCOCC3)nc(N3CCOCC3)n2)cn1 [Buparlisib] (max concentration tested 10000 nM) = 8.57
c1ccc2c(CCNc3ccc(Nc4ccncc4)cc3)c[nH]c2c1 [Serdemetan] (max concentration tested 10000 nM) = 12.5
COc1cccc2c1C(=O)c1c(O)c3c(c(O)c1C2=O)C[C@@](O)(C(=O)CO)C[C@@H]3O[C@H]1C[C@H](N)[C@H](O)[C@H](C)O1 [Doxorubicin] (max concentration tested 1000 nM) = 102

Attention now turns to another entry.
Note to self: percent inhibition of viability of CC(C)[C@H]1C(=O)N[C@@H](CCCNC(=N)N)C(=O)NCC(=O)N[C@@H](CC(=O)O)C(=O)N[C@H](Cc2ccccc2)C(=O)N1C [Cilengitide] (max concentration tested 10000 nM) with NKL (IL-2 2.5 ng/mL) was -8.49
